System: normal skin fibroblast cells (BJ-1)
protocol-summary: MTT cytotoxicity assay, normal skin fibroblast BJ-1
Type: cell-based
measurement-parameters: Homo sapiens, 48 h, read-out: Growth Inhibition (%) BJ-1
What inhibition at 100 µg/mL was measured for each of the following?
Answers are plain numbers, in %.

Hi there! I need inhibition at 100 µg/mL for each item below, if you can.
1. O=C(c1ccccc1Cl)n1cc(C2=NN(c3ccccc3)C3(C2)C(=O)Nc2ccccc23)c2ccccc21 (stereo not shown) [Compound 14e]
2. O=C1Nc2ccccc2C12CC(c1cn(S(=O)(=O)c3ccccc3[N+](=O)[O-])c3ccccc13)=NN2c1ccccc1 (stereo not shown) [Compound 14i]
3. O=C(c1ccccc1Cl)n1cc(C2=NNC3(C2)C(=O)Nc2ccccc23)c2ccccc21 (stereo not shown) [Compound 13e]
4. O=C1Nc2ccccc2C12CC(c1cn(S(=O)(=O)c3ccc(Br)cc3)c3ccccc13)=NN2 (stereo not shown) [Compound 13g]

16.6
78.6
10.3
13

Reference source for all entries: paper PMC7179167
